- stated_conditions: acidic group
Mark Yes for reported pKa of 9 or greater; mark No for anything smaller.

- compound: "CCCCN[N+](=O)[O-]"
  cat: "No"
- compound: "C[N+](C)(C)/N=C(/O)c1ccccc1"
  cat: "No"
- compound: "O=C(O)c1cccc([N+](=O)[O-])c1Cl"
  cat: "No"
- compound: "N#CC(C#N)Cc1ccc([N+](=O)[O-])cc1"
  cat: "Yes"
- compound: "N#CC(C#N)=NNc1ccccc1"
  cat: "No"
- compound: "O=C1CC(=O)NC(=S)[N-]1"
  cat: "Yes"
- compound: "Sc1cc[nH+]c2ccccc12"
  cat: "No"
- compound: "Oc1ccccc1I"
  cat: "No"
- compound: "Oc1cccc2ncccc12"
  cat: "No"
- compound: "O=C(O)CC1CCCCO1 (stereo unspecified)"
  cat: "No"
- compound: "O=c1cnn([C@H]2O[C@@H](CO)[C@H](O)[C@@H]2O)c(=O)[nH]1"
  cat: "No"
- compound: "Cc1ccc(C(=O)O)cc1O"
  cat: "No"
- compound: "CC(=S)Nc1ccc(Cl)cc1"
  cat: "Yes"
- compound: "Cc1cc(C)cc(O)c1"
  cat: "Yes"
- compound: "CC(=O)/C(C[NH+]1CCCCC1)=N\\O"
  cat: "No"
- compound: "Cc1ccc([N+](=O)[O-])cc1C(=O)O"
  cat: "No"
- compound: "C[N+](C)(C)CCCc1ccc(O)cc1"
  cat: "Yes"
- compound: "O=[PH]([O-])C(NCc1cccnc1)c1ccccc1O (stereo unspecified)"
  cat: "Yes"
- compound: "O=[N+]([O-])c1n[nH]c(-n2cncn2)n1"
  cat: "No"
- compound: "CNc1nc2ncncc2[nH]1"
  cat: "Yes"
- compound: "C/C(=C\\C=C\\C(C)C(=O)O)[C@H]1C[NH2+][C@H](C(=O)[O-])[C@H]1CC(=O)[O-] (stereo partly specified)"
  cat: "No"
- compound: "CCc1cc(C(C)C)ccc1O"
  cat: "Yes"
- compound: "[NH3+]CCCCCCCCCCC(=O)O"
  cat: "No"
